Recorded measurements of pIC50, one per entry
- Test Protocol: Inhibition of mouse PKA using CREBtide as substrate after 30 mins in presence of ATP by ADP-Glo kinase assay
pIC50: −log10 of the molar value.
Measurement Type: pIC50

{"Chemical Structure": "O=C(NCc1c(Cl)cccc1Cl)c1cc([C@@H]2CCNC[C@H]2COc2ccc3c(c2)OCO3)ccc1F", "Measurement Type": "pIC50", "Result": "< 4.00"}
{"Chemical Structure": "O=C(NCCc1cc[nH]n1)c1cc([C@@H]2CCNC[C@H]2COc2ccc3c(c2)OCO3)ccc1F", "Measurement Type": "pIC50", "Result": "< 4.00"}
{"Chemical Structure": "COc1ccccc1CNC(=O)Cc1cc([C@@H]2CCNC[C@H]2COc2ccc3c(c2)OCO3)ccc1F", "Measurement Type": "pIC50", "Result": 4.59}
{"Chemical Structure": "O=C(NCCc1cn[nH]c1)c1cc([C@@H]2CCNC[C@H]2COc2ccc3c(c2)OCO3)ccc1F", "Measurement Type": "pIC50", "Result": "< 4.00"}
{"Chemical Structure": "O=C(NCc1cccnc1)c1cc([C@@H]2CCNC[C@H]2COc2ccc3c(c2)OCO3)ccc1F", "Measurement Type": "pIC50", "Result": "< 4.00"}
{"Chemical Structure": "O=C(NCCc1c(F)cccc1F)c1cc([C@@H]2CCNC[C@H]2COc2ccc3c(c2)OCO3)ccc1F", "Measurement Type": "pIC50", "Result": "< 4.00"}
{"Chemical Structure": "Fc1ccc([C@@H]2CCNC[C@H]2COc2ccc3c(c2)OCO3)cc1", "Measurement Type": "pIC50", "Result": "< 4.00"}
{"Chemical Structure": "O=C(NCc1c(F)cccc1F)c1cc([C@@H]2CCNC[C@H]2COc2ccc3c(c2)OCO3)ccc1F", "Measurement Type": "pIC50", "Result": "< 4.00"}

----------
Recorded measurements of IC50, one per entry
- Experimental System: Rhodopsin kinase GRK1 (Bos taurus)
- Sequence (P28327 whole entry): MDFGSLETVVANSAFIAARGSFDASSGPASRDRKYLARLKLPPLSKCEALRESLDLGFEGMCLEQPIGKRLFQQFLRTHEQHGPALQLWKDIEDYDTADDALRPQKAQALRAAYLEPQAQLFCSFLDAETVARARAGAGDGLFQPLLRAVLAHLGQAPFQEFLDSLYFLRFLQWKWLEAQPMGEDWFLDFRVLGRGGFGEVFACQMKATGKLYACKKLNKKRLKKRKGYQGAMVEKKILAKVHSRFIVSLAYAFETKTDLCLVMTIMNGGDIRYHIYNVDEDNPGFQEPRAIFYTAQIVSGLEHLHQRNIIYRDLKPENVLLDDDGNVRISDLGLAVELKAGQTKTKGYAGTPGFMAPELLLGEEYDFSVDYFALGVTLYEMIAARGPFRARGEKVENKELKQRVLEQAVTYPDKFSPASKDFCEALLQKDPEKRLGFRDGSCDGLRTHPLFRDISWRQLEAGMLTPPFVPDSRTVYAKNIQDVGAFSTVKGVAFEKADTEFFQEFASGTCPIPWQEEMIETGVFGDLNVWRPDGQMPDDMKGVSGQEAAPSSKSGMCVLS

{"Chemical Structure": "COc1ccccc1CNC(=O)Cc1cc([C@@H]2CCNC[C@H]2COc2ccc3c(c2)OCO3)ccc1F", "Experimental System": "Rhodopsin kinase GRK1 (Bos taurus)", "Result Comparator": ">", "IC50, µM": 100}
{"Chemical Structure": "COc1cccc(OC)c1CNC(=O)c1cc([C@@H]2CCNC[C@H]2COc2ccc3c(c2)OCO3)ccc1F", "Experimental System": "Rhodopsin kinase GRK1 (Bos taurus)", "Result Comparator": "=", "IC50, µM": 32}
{"Chemical Structure": "Cc1cccc(C)c1CNC(=O)c1cc([C@@H]2CCNC[C@H]2COc2ccc3c(c2)OCO3)ccc1F", "Experimental System": "Rhodopsin kinase GRK1 (Bos taurus)", "Result Comparator": "=", "IC50, µM": 24.5}

----------
Recorded measurements of IC50, one per entry
- Experimental System: G protein-coupled receptor kinase 5 (Bos taurus)
- Sequence (P43249 whole entry): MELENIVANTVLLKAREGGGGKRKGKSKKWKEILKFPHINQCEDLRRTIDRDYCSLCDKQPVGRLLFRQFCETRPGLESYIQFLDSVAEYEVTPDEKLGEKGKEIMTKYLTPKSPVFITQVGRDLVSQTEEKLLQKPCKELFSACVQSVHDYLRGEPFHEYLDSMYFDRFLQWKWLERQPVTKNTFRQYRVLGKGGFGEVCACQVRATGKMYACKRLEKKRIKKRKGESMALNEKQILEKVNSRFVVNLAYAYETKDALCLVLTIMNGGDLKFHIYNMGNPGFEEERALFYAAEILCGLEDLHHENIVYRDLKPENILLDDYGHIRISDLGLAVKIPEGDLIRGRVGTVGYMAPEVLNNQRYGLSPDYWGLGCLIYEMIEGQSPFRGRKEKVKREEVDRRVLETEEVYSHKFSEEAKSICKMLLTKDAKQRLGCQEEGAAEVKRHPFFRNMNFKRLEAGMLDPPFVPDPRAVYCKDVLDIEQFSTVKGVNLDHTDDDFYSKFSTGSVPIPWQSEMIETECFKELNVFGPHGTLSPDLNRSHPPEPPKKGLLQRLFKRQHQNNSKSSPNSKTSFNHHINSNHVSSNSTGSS

{"Compound": "O=C(NCCc1c(F)cccc1F)c1cc([C@@H]2CCNC[C@H]2COc2ccc3c(c2)OCO3)ccc1F", "Experimental System": "G protein-coupled receptor kinase 5 (Bos taurus)", "IC50": "10.2 µM"}
{"Compound": "O=C(Cc1cc([C@@H]2CCNC[C@H]2COc2ccc3c(c2)OCO3)ccc1F)NCCc1cn[nH]c1", "Experimental System": "G protein-coupled receptor kinase 5 (Bos taurus)", "IC50": "> 100 µM"}
{"Compound": "O=C(NCCc1cn[nH]c1)c1cc([C@@H]2CCNC[C@H]2COc2ccc3c(c2)OCO3)ccc1F", "Experimental System": "G protein-coupled receptor kinase 5 (Bos taurus)", "IC50": "> 100 µM"}
{"Compound": "Cc1cc(CNC(=O)c2cc([C@@H]3CCNC[C@H]3COc3ccc4c(c3)OCO4)ccc2F)n[nH]1", "Experimental System": "G protein-coupled receptor kinase 5 (Bos taurus)", "IC50": "4 µM"}
{"Compound": "Cn1ccc(CNC(=O)c2cc([C@@H]3CCNC[C@H]3COc3ccc4c(c3)OCO4)ccc2F)n1", "Experimental System": "G protein-coupled receptor kinase 5 (Bos taurus)", "IC50": "> 100 µM"}
{"Compound": "O=C(NCc1c(F)cccc1F)c1cc([C@@H]2CCNC[C@H]2COc2ccc3c(c2)OCO3)ccc1F", "Experimental System": "G protein-coupled receptor kinase 5 (Bos taurus)", "IC50": "37.2 µM"}
{"Compound": "Fc1ccc([C@@H]2CCNC[C@H]2COc2ccc3c(c2)OCO3)cc1 [PAROXETINE]", "Experimental System": "G protein-coupled receptor kinase 5 (Bos taurus)", "IC50": "> 100 µM"}
{"Compound": "Cc1cccc(C)c1CNC(=O)c1cc([C@@H]2CCNC[C@H]2COc2ccc3c(c2)OCO3)ccc1F", "Experimental System": "G protein-coupled receptor kinase 5 (Bos taurus)", "IC50": "42.3 µM"}

All figures here come from ChEMBL document CHEMBL4043080.
